- target.or.test.system: kinases (Homo sapiens)
- Construct: purchased Eurofins/DiscoveRx; host or cells: E. coli BL21-derived host (T7 phage display) for most kinases; HEK-293 for the rest
- assay.info: KINOMEscan kinase binding assay (Eurofins/DiscoveRx), % Ctrl
- study.conditions: 1 μM; EGFR
# % Ctrl, EGFR >= 90 % Ctrl gives label 1, anything below gives label 0

Would you please look over these solved cases?
Does % Ctrl, EGFR meet or surpass 90 % Ctrl for Cc1cc2c([nH]1)/C=C1\C(=O)Nc3cnc(nc31)N(C)CCCOCCN(C)C2=O [Ex.71] ? label 1

Does % Ctrl, EGFR meet or surpass 90 % Ctrl for Cc1cc2c([nH]1)/C=C1\C(=O)Nc3ccc(cc31)-c1cnn(C)c1CN(C)CCN(C)C2=O [Ex. 126] ? label 0

Does % Ctrl, EGFR meet or surpass 90 % Ctrl for Cc1cc2c([nH]1)/C=C1\C(=O)Nc3ccc(cc31)OCCOCCNC2=O [Ex. 129] ? label 1

Does % Ctrl, EGFR meet or surpass 90 % Ctrl for Cc1cc2c([nH]1)/C=C1\C(=O)Nc3ccc(cc31)-c1ccnn1CCOCCN(C)C2=O [Ex. 41] ? label 0

Does % Ctrl, EGFR meet or surpass 90 % Ctrl for Cc1cc2c([nH]1)/C=C1\C(=O)Nc3ccc(cc31)O[C@@H](C)COCCN(C)C2=O [Ex. 92] ? label 1

Further cases:
Does % Ctrl, EGFR meet or surpass 90 % Ctrl for Cc1cc2c([nH]1)/C=C1\C(=O)Nc3ccc(cc31)CN(C)C(=O)COCCNC2=O [Ex.111] ? label 0

Does % Ctrl, EGFR meet or surpass 90 % Ctrl for Cc1cc2c([nH]1)/C=C1\C(=O)Nc3ccc(cc31)-c1ccnn1CCOCCNC2=O [Ex.39] ? label 0

* * *

Measured % Ctrl, ABL1(F317L)-nonphosphorylated, listed per entry.
- target.or.test.system: kinases (Homo sapiens, UniProt P00519, F317L)
- Construct: purchased Eurofins/DiscoveRx; host or cells: E. coli BL21-derived host (T7 phage display) for most kinases; HEK-293 for the rest
- Sequence (P00519 whole entry F317L): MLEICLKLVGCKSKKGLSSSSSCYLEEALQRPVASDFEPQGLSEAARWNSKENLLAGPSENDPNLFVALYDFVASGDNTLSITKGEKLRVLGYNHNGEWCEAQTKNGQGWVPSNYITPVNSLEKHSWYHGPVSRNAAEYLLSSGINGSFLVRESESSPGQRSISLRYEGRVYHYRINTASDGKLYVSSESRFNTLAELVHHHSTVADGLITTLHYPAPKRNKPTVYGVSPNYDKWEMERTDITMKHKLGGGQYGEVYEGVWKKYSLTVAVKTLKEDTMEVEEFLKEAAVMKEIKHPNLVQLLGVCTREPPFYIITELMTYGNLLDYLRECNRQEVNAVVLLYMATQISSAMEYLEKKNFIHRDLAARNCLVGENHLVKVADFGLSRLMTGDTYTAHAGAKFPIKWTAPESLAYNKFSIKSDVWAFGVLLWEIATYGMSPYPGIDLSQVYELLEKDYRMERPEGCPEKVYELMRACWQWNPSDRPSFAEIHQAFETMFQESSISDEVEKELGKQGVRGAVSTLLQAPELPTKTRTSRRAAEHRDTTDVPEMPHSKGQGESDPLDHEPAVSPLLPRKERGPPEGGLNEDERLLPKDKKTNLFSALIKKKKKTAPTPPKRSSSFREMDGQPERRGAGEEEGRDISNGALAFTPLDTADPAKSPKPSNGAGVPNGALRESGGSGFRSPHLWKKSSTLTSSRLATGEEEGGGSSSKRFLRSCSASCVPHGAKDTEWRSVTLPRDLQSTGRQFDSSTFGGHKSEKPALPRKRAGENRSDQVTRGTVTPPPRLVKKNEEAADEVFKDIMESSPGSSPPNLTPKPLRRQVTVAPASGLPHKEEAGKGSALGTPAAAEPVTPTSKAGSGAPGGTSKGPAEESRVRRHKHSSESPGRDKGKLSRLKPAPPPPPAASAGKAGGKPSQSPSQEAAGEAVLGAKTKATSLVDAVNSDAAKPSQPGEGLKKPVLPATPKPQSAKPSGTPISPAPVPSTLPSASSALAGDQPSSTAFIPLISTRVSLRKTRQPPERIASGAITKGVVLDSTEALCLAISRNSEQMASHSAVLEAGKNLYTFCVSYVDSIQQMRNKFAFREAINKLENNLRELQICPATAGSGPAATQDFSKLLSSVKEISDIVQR
- assay.info: KINOMEscan kinase binding assay (Eurofins/DiscoveRx), % Ctrl
- study.conditions: 1 μM; ABL1(F317L)-nonphosphorylated
- Description: Kinase binding assays were performed at Eurofins/DiscoveRx using the general KINOMEscan Protocol (Fabian, M. A. et al., “A small molecule-kinase interaction map for clinical kinase inhibitors,” Nat. Biotechnol. 2005, 23(3):329-36). For most assays, kinase-tagged T7 phage strains were prepared in an E. coli host derived from the BL21 strain. […] The kinase concentration in the eluates was measured by qPCR. […]
Please state the number and follow it with the unit.

# count of solved cases: 5
Which % Ctrl, ABL1(F317L)-nonphosphorylated value belongs to Cc1cc2c([nH]1)/C=C1\C(=O)Nc3ccc(cc31)-c1ccnn1CCOCCNC2=O ? 98 % Ctrl

Which % Ctrl, ABL1(F317L)-nonphosphorylated value belongs to CNC(=O)[C@H]1CN(C)C(=O)c2cc(C)[nH]c2/C=C2\C(=O)Nc3cc(Cl)c(cc32)OCCO1 ? 78 % Ctrl

Which % Ctrl, ABL1(F317L)-nonphosphorylated value belongs to Cc1cc2c([nH]1)/C=C1\C(=O)Nc3ccc(cc31)-c1cnn(C)c1CN(C)CCN(C)C2=O ? 1.7 % Ctrl

Which % Ctrl, ABL1(F317L)-nonphosphorylated value belongs to Cc1cc2c([nH]1)/C=C1\C(=O)Nc3ccc(cc31)-c1c(noc1C)COCCN(C)C2=O ? 85 % Ctrl

Which % Ctrl, ABL1(F317L)-nonphosphorylated value belongs to Cc1cc2c([nH]1)/C=C1\C(=O)Nc3cnc(nc31)N(C)CCCOCCN(C)C2=O ? 100 % Ctrl

Further cases:
Which % Ctrl, ABL1(F317L)-nonphosphorylated value belongs to Cc1cc2c([nH]1)/C=C1\C(=O)Nc3cc(Cl)c(cc31)OCCO[C@@H](C(=O)N[C@@H]1CCNC1)CN(C)C2=O ? 59 % Ctrl

Which % Ctrl, ABL1(F317L)-nonphosphorylated value belongs to Cc1cc2c([nH]1)/C=C1\C(=O)Nc3cc(Cl)c(cc31)OCCOCCN(C)C2=O ? 0 % Ctrl

Which % Ctrl, ABL1(F317L)-nonphosphorylated value belongs to Cc1cc2c([nH]1)/C=C1\C(=O)Nc3ccc(cc31)O[C@@H](C)COCCN(C)C2=O ? 6.5 % Ctrl

Which % Ctrl, ABL1(F317L)-nonphosphorylated value belongs to Cc1cc2c([nH]1)/C=C1\C(=O)Nc3cc(Cl)c(cc31)OCCO[C@@H](C(=O)N(C)C)CN(C)C2=O ? 76 % Ctrl

Which % Ctrl, ABL1(F317L)-nonphosphorylated value belongs to Cc1cc2c([nH]1)/C=C1\C(=O)Nc3cnc(cc31)-c1cnn(C)c1COCCNC2=O ? 100 % Ctrl

Which % Ctrl, ABL1(F317L)-nonphosphorylated value belongs to Cc1cc2c([nH]1)/C=C1\C(=O)Nc3ccc(cc31)OCCOCCN(C)C2=O ? 12 % Ctrl

Which % Ctrl, ABL1(F317L)-nonphosphorylated value belongs to Cc1cc2c([nH]1)/C=C1\C(=O)Nc3ccc(cc31)-c1c(C)n[nH]c1CNCCN(C)C2=O ? 4.1 % Ctrl

Which % Ctrl, ABL1(F317L)-nonphosphorylated value belongs to Cc1cc2c([nH]1)/C=C1\C(=O)Nc3ccc(cc31)-c1cnn(C)c1CNCCN(C)C2=O ? 0 % Ctrl

Which % Ctrl, ABL1(F317L)-nonphosphorylated value belongs to Cc1cc2c([nH]1)/C=C1\C(=O)Nc3ccc(cc31)-c1cnn(C)c1COCCN(C)C2=O ? 0 % Ctrl

Which % Ctrl, ABL1(F317L)-nonphosphorylated value belongs to Cc1cc2c([nH]1)/C=C1\C(=O)Nc3ccc(cc31)CN(C)C(=O)COCCNC2=O ? 87 % Ctrl

Which % Ctrl, ABL1(F317L)-nonphosphorylated value belongs to Cc1cc2c([nH]1)/C=C1\C(=O)Nc3ccc(cc31)-c1ccnn1CCNCCNC2=O ? 63 % Ctrl

Which % Ctrl, ABL1(F317L)-nonphosphorylated value belongs to Cc1cc2c([nH]1)/C=C1\C(=O)Nc3ccc(cc31)OCCOCCNC2=O ? 93 % Ctrl

* * *

- target.or.test.system: kinases (Homo sapiens, UniProt P36888, K663Q)
- Construct: purchased Eurofins/DiscoveRx; host or cells: E. coli BL21-derived host (T7 phage display) for most kinases; HEK-293 for the rest
- Sequence (P36888 27-993 K663Q): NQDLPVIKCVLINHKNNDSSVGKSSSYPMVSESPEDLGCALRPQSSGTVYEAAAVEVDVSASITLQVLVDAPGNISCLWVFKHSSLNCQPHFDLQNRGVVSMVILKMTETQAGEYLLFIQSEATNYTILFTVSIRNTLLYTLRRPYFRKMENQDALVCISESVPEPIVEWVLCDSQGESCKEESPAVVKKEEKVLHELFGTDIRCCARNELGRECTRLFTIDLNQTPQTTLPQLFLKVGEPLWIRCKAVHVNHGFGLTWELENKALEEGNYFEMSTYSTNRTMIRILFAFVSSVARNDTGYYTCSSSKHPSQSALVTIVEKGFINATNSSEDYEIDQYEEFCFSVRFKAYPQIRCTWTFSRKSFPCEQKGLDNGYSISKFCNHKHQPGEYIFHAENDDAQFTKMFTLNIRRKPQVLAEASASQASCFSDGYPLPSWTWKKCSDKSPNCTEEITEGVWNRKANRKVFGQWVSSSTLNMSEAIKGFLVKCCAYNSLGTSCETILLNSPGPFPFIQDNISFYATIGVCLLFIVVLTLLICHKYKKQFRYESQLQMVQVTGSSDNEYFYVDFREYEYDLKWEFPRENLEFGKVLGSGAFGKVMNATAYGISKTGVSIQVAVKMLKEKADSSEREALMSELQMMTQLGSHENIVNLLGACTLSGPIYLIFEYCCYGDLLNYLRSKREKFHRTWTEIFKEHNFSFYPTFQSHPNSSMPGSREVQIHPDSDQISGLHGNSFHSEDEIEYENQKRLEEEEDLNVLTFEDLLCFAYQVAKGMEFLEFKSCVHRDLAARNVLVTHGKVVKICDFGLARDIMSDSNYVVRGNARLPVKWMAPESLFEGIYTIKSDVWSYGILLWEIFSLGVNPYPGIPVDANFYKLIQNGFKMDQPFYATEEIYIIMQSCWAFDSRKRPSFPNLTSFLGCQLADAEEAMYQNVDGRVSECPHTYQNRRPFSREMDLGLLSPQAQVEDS
- assay.info: KINOMEscan kinase binding assay (Eurofins/DiscoveRx), % Ctrl
- study.conditions: target FLT3(K663Q); 1 μM
attribute.measured: % Ctrl, FLT3(K663Q) (% Ctrl)
Only the number, expressed in % Ctrl, is required.

# count of solved cases: 2
Which % Ctrl, FLT3(K663Q) value belongs to CN1CCOCCOc2cc3c(cc2Cl)NC(=O)/C3=C\c2[nH]ccc2C1=O [Ex. 143] ? 11

Which % Ctrl, FLT3(K663Q) value belongs to Cc1cc2c([nH]1)/C=C1\C(=O)Nc3cnc(cc31)-c1cn[nH]c1CNCCN(C)C2=O [Ex. 55] ? 1.2

Below: the item to evaluate.
Which % Ctrl, FLT3(K663Q) value belongs to Cc1cc2c([nH]1)/C=C1\C(=O)Nc3cc(Cl)c(cc31)OCCO[C@@H](C(=O)N1CCN(C)CC1)CN(C)C2=O [Ex. 138] ? 95
